Data origin: paper PMC3539133

- assay target: T1, dADAR dsRBD1 (UniProt Q9NII1 48-140)
- T1 sequence: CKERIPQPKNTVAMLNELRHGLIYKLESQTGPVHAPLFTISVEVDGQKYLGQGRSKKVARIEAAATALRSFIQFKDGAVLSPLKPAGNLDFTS
- assay method text: ITC

| binder | Kd / nM |
| --- | --- |
| GGUAGUAUAACAAUAUCCGUGUUGUUAUAGUACC (structured_RNA) [GluR-2 R/G upper stem-loop (GluR-2 USL) with GluR-3 tetraloop] | 400 |
